assayed.system: V1 receptor (Rattus norvegicus, UniProt P30560)
Sequence (P30560 whole entry): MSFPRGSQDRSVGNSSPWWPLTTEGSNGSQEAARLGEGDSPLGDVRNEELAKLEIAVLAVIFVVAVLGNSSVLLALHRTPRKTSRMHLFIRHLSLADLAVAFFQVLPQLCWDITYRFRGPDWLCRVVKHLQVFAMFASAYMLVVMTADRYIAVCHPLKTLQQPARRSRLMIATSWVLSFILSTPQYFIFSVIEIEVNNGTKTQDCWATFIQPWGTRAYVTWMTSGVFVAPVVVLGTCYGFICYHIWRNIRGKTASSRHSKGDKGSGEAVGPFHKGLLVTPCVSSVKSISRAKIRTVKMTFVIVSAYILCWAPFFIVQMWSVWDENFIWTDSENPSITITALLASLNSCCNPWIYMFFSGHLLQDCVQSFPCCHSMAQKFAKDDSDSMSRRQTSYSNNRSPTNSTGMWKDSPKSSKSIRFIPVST
test.method.notes: biochemical
test.conditions: rat liver plasma membrane, [3H]-Arg-vasopressin, 37° C., 10 minutes, pH 8.0; read-out: IC50 in V1 receptor binding assay
endpoint.label: IC50 (nM)

> print(dat)
                                    compound                            assayed.system  endpoint.label  reported.measurement
 1  CC(=O)N1CCN(CCOC2CCCN(C(=O)c3ccc(NC(=O)c4ccccc4Cl)nc3)c3ccc(Cl)cc32)CC1 (centres unmarked)  V1 receptor (Rattus norvegicus, UniProt P30560)            IC50                    15
 2  O=C(Nc1ccc(C(=O)N2CCCC(CCN3CCCC3)c3cc(Cl)ccc32)cn1)c1ccccc1Cl (centres unmarked)  V1 receptor (Rattus norvegicus, UniProt P30560)            IC50                    19
 3  O=C1c2ccccc2OCCN1c1ccc(C(=O)N2CCCCc3cc(Cl)ccc32)cn1  V1 receptor (Rattus norvegicus, UniProt P30560)            IC50                    42
 4  CC(=O)NCCOC1CCCN(C(=O)c2ccc(NC(=O)c3ccccc3C)nc2)c2ccc(Cl)cc21 (centres unmarked)  V1 receptor (Rattus norvegicus, UniProt P30560)            IC50                    26
 5  O=C(Nc1ccc(C(=O)N2CCCC(O)c3cc(Cl)ccc32)cn1)c1ccccc1[N+](=O)[O-] (centres unmarked)  V1 receptor (Rattus norvegicus, UniProt P30560)            IC50                    24
 6  O=C(Nc1ccc(C(=O)N2CCCC(OCCNC3CCCC3)c3cc(Cl)ccc32)cn1)c1ccccc1Cl (centres unmarked)  V1 receptor (Rattus norvegicus, UniProt P30560)            IC50                   7.8
 7  O=C(O)COC1CCCN(C(=O)c2ccc(NC(=O)c3ccccc3Cl)nc2)c2ccc(Cl)cc21 (centres unmarked)  V1 receptor (Rattus norvegicus, UniProt P30560)            IC50                   117
 8  NC(=O)COc1ccccc1C(=O)Nc1ccc(C(=O)N2CCCCc3cc(Cl)ccc32)cn1  V1 receptor (Rattus norvegicus, UniProt P30560)            IC50                     5
 9  O=C(Nc1ccc(C(=O)N2CCCCc3cc(Cl)ccc32)cn1)c1ccccc1Br  V1 receptor (Rattus norvegicus, UniProt P30560)            IC50                     5
10  CCN(CC)CCN(C)C(=O)CC1CCCN(C(=O)c2ccc(NC(=O)c3ccccc3C)nc2)c2ccc(Cl)cc21 (centres unmarked)  V1 receptor (Rattus norvegicus, UniProt P30560)            IC50                     9
11  O=C(Nc1ccc(C(=O)N2CCCCc3cc(Cl)ccc32)cn1)c1ccccc1Cl  V1 receptor (Rattus norvegicus, UniProt P30560)            IC50                     8
12  Cc1ccccc1C(=O)Nc1ccc(C(=O)N2CCCC(CCNC(C)C)c3cc(Cl)ccc32)cn1 (centres unmarked)  V1 receptor (Rattus norvegicus, UniProt P30560)            IC50                    16
13  CC(=O)OCCC1CCCN(C(=O)c2ccc(NC(=O)c3ccccc3Cl)nc2)c2ccc(Cl)cc21 (centres unmarked)  V1 receptor (Rattus norvegicus, UniProt P30560)            IC50                    15
14  O=C(O)CC1CCCN(C(=O)c2ccc(NC(=O)c3ccccc3Br)nc2)c2ccc(Cl)cc21 (centres unmarked)  V1 receptor (Rattus norvegicus, UniProt P30560)            IC50                   490
15  COc1ccccc1C(=O)Nc1ccc(C(=O)N2CCCC(O)c3cc(Cl)ccc32)cn1 (centres unmarked)  V1 receptor (Rattus norvegicus, UniProt P30560)            IC50                    77
16  C=CCOC1CCCN(C(=O)c2ccc(NC(=O)c3ccccc3Br)nc2)c2ccc(Cl)cc21 (centres unmarked)  V1 receptor (Rattus norvegicus, UniProt P30560)            IC50                    27
17  Cc1cccc(C(=O)Nc2ccc(C(=O)N3CCCC(O)c4cc(Cl)ccc43)cn2)c1 (centres unmarked)  V1 receptor (Rattus norvegicus, UniProt P30560)            IC50                    78
18  Cc1ccccc1C(=O)Nc1ccc(C(=O)N2CCCC(O)c3cc(Cl)ccc32)cn1 (centres unmarked)  V1 receptor (Rattus norvegicus, UniProt P30560)            IC50                    14
19  Cc1ccccc1C(=O)Nc1ccc(C(=O)N2CCCC(CCO)c3cc(Cl)ccc32)cn1 (centres unmarked)  V1 receptor (Rattus norvegicus, UniProt P30560)            IC50                    20
20  O=C(Nc1ccc(C(=O)N2CCCC(O)c3cc(Cl)ccc32)cn1)c1cccs1 (centres unmarked)  V1 receptor (Rattus norvegicus, UniProt P30560)            IC50                    57
21  COC1CCCN(C(=O)c2ccc(NC(=O)c3ccccc3Br)nc2)c2ccc(Cl)cc21 (centres unmarked)  V1 receptor (Rattus norvegicus, UniProt P30560)            IC50                    12
22  Cc1ccccc1C(=O)Nc1ccc(C(=O)N2CCCC(O)c3cc(Cl)ccc32)s1 (centres unmarked)  V1 receptor (Rattus norvegicus, UniProt P30560)            IC50                    67
23  Cc1ccccc1C(=O)Nc1ccc(C(=O)N2CCCC(OC(=O)CN(C)C)c3cc(Cl)ccc32)cn1 (centres unmarked)  V1 receptor (Rattus norvegicus, UniProt P30560)            IC50                    34
